Target: human IgA
Assay: Surface plasmon resonance analysis (BiaCore T100) of peptide binding to human IgA
Conditions: binding affinity to human IgA
quantity: Kd (nM)

Reference set, count: 4
>  <sequence-content>
HQVCLSYRGRPTCFST [Opt2 M2Q L16T V12T]

>  <Kd [nM]>
952

$$$$
>  <sequence-content>
HMVCLSYRGRPVCF [Opt2 14AA]

>  <Kd [nM]>
603

$$$$
>  <sequence-content>
HQVCLSYRGRPVCFST [Opt2 M2Q L16T]

>  <Kd [nM]>
72

$$$$
>  <sequence-content>
HQVCLSYRGQPVCFST [Opt2 M2Q L16T R10Q]

>  <Kd [nM]>
699

$$$$

[I] HMVCLSYRGRPVCFS [Opt2 15AA]
[II] HQVCLSYRGQPVCFSL [Opt2 M2Q R10Q]
[III] HQVCLSYRGRPVCFSL [Opt2 M2Q]
[IV] HQVCLSYRGQPTCFST [Opt2 M2Q L16T R10 Q V12T]
# ascending order, key=Kd Put the labels in the order asked and list them.
III, II, I, IV
